- Tested on: U2OS
- TEST_METHOD_NOTES: Multiplex assay against U2OS
- Assay type: toxicity, cell-based
- CONDITION_SET: human, 24 h, 10 µM, compound concentration 10 uM, replicate 1
Non-standard residues stand in square brackets, D forms with d. Residues, ends and D or L forms follow the SMILES beside them.
READOUT_NAME: Population Mitochondria Different-Phenotype (%)

MOLECULE	ASSAY_TARGET	EXPERIMENTAL_RESULT
CC(C)C[C@H](CO)Nc1nc(S[C@@H](C)c2ccccc2)nc2nc(N)sc12	U2OS	12
COc1cc(Nc2ncc3c(n2)-c2ccc(Cl)cc2C(c2c(F)cccc2OC)=NC3)ccc1C(=O)O	U2OS	5
Cc1ccc(OCC(O)C(C)NC(C)C)c2c1CCC2.Cl (configuration not stated)	U2OS	17
COc1ccc2[nH]c(I)c(CCNC(C)=O)c2c1	U2OS	1
COc1cc2nc(N3CCN(C(=O)COc4c(OC)cccc4C(C)C)CC3)nc(N)c2cc1OC.Cl.Cl	U2OS	49
CCc1nn2c(C)cc(C)nc2c1Cc1ccc(-c2nnc(C3CCNCC3)o2)cc1	U2OS	40
Nc1nc(-c2ccco2)c2cnn(Cc3ccccc3F)c2n1	U2OS	3
CN1CCC(C(=O)c2cccc(NC(=O)c3c(F)cc(F)cc3F)n2)CC1	U2OS	9
N[C@](CC1c2ccccc2Oc2ccccc21)(C(=O)O)[C@H]1C[C@@H]1C(=O)O	U2OS	3
CC(C)C[C@@H]1NC(=O)[C@@H](C(C)C)NC(=O)[C@@H]2CCCN2C(=O)[C@@H](CC(=O)O)NC(=O)[C@@H](Cc2c[nH]c3ccccc23)NC1=O [BQ-123] (cyclo(L[dW][dD]P[dV]))	U2OS	2
CCn1c(-c2nc3cc(C(=O)N4CCCC(N)C4)ccc3n2C)cc2ccccc21.Cl (configuration not stated)	U2OS	34
COc1ccc2c(c1OCc1ccccc1)C[C@@H](C(=O)O)N(C(=O)C(c1ccccc1)c1ccccc1)C2	U2OS	0
COc1cc(OC2CCN(C(C)=O)CC2)ccc1C(=O)N1CCC(N2C(=O)OCc3ccccc32)CC1	U2OS	9
Cl.Cl.OCCOCCN1CCN(C(c2ccccc2)c2ccc(Cl)cc2)CC1 (configuration not stated) [HYDROXYZINE HYDROCHLORIDE]	U2OS	8
Nc1nc(CC(=O)Nc2ccc(CCNC[C@H](O)c3ccccc3)cc2)cs1	U2OS	3
CN(C)C/C=C/C(=O)Nc1ccc(C(=O)N2CCCC(Nc3ncc(Cl)c(-c4c[nH]c5ccccc45)n3)C2)cc1 (configuration not stated)	U2OS	33
COc1cc(C(=O)N2CC[C@@H](O)[C@@H](N)C2)cc2nc(-c3cc4ccccc4n3CC3CC3)n(C)c12.Cl	U2OS	88
